Target: IRAK4 (Homo sapiens)
Construct: endogenous in cells; host or cells: Karpas299
Sequence (Q9NWZ3 whole entry): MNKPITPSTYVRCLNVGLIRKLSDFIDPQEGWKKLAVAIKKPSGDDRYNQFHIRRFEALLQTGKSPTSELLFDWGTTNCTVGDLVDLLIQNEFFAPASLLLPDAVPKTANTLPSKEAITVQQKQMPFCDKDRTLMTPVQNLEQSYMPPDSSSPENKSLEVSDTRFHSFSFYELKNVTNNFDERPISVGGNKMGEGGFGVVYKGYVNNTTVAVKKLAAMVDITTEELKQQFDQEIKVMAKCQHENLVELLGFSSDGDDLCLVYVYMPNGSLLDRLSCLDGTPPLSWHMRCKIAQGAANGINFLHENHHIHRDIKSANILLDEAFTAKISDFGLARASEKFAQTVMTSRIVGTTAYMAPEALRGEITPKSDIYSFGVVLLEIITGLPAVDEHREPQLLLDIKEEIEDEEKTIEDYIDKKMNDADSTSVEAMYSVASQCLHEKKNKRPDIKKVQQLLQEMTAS
Test: IRAK4 Degradation Assay with Human Serum (Karpas299, HTRF/TR-FRET)
Format: cell-based
Conditions: Karpas-299 in human serum, 24 hrs treatment; read-out: IRAK4 degradtion with human serum assay DC50
Binarize DC50 at 8 nM; below is y, at or above is n.

Task: # strict comparison: is reported DC50 < 8 nM? input = COC[C@H]1CN([C@H]2CC[C@H](n3cc4cc(NC(=O)c5ccc6cc(C#N)cnn56)c(C(C)(C)O)cc4n3)CC2)CCN1CC1CCN(c2ccc3c(c2)CN(C2CCC(=O)NC2=O)C3=O)CC1 (some centres unmarked) [Example 402]
Output: y

Task: Given CC(C)(O)c1cc2nn(C34CC(N5CCN(C(=O)C6CN(c7cc(F)c([C@H]8CCC(=O)NC8=O)c(F)c7)C6)CC5)(C3)C4)cc2cc1NC(=O)c1ccc2cc(C#N)cnn12 [Example 157] , is recorded DC50 strictly lower than 8 nM?
Output: n

Task: hey, is DC50 for CC(C)(O)c1cc2nn([C@H]3CC[C@H](N4CCN(CC5CN(c6cc(F)c(N7CCC(=O)NC7=O)c(F)c6)C5)CC4)CC3)cc2cc1NC(=O)c1ccc2cc(C#N)cnn12 [Example 108] lower than 8 nM or not?
Output: n

Task: Quick check: DC50 of COC[C@H]1CN(CC2CN(c3cc(F)c([C@H]4CCC(=O)NC4=O)c(F)c3)C2)CCN1[C@H]1CC[C@H](n2cc3cc(NC(=O)c4ccc5cc(C#N)cnn45)c(C(C)(C)O)cc3n2)CC1 [Example 322] under 8 nM?
Output: n

Task: Hello, is DC50 of the following molecule strictly smaller than 8 nM? CC(C)(O)c1cc2nn([C@H]3CC[C@H](C4CCN(C5CCN(c6cc(F)c([C@H]7CCC(=O)NC7=O)c(F)c6)CC5)CC4)CC3)cc2cc1NC(=O)c1ccc2cc(C#N)cnn12 [Example 409]
Output: n

Task: Lab note: confirm whether the reported DC50 for this molecule is below 8 nM, equality not counting. molecule: CC(C)(O)c1cc2nn([C@H]3CC[C@H](N4CCN(C5CCN(c6ccc7c(c6)CN(C6CCC(=O)NC6=O)C7=O)CC5)CC4)CC3)cc2cc1NC(=O)c1ccc2cc(C#N)cnn12 (some centres unmarked) [Example 417]
Output: y

Task: # TODO verify DC50 < 8 nM strictly for this molecule: Cc1nc(C2CCC(=O)NC2=O)ccc1N1CCC(N2CCN(C[C@H]3CC[C@H](n4cc5cc(NC(=O)c6ccc7cc(C#N)cnn67)c(C(C)(C)O)cc5n4)CC3)CC2)CC1 (some centres unmarked) [Example 420]
Output: n
